- Tested on: kochia (Kochia scoparia)
- Protocol summary: Test A postemergence, visual injury rating
- Assay type: in vivo
- Test conditions: 125 g ai/ha, 0 is no effect, 100 is complete control
Measurement type: Kochia plant response rating (0 to 100 scale)
Answers are plain numbers.

>>> df
                              entry_smiles             tested_system  value_measured
0    O=C(OCCC(F)(F)F)c1ccccc1Oc1ncc(Cl)cn1  kochia (Kochia scoparia)               0
1  O=C(OCC(F)(F)F)c1c(F)cccc1Oc1ncc(Br)cn1  kochia (Kochia scoparia)               0
2  C=C(Cl)COC(=O)c1c(Br)cccc1Oc1ncc(Cl)cn1  kochia (Kochia scoparia)              90
3   O=C(OCC1CCC1)c1c(Br)cccc1Oc1ncc(Cl)cn1  kochia (Kochia scoparia)              40

Please turn your attention to the following entry.
// `CN(CCC(F)(F)F)C(=O)c1c(Br)cccc1Oc1ncc(Cl)cn1` : Kochia plant response rating (0 to 100 scale) value = 0
